Target sequence: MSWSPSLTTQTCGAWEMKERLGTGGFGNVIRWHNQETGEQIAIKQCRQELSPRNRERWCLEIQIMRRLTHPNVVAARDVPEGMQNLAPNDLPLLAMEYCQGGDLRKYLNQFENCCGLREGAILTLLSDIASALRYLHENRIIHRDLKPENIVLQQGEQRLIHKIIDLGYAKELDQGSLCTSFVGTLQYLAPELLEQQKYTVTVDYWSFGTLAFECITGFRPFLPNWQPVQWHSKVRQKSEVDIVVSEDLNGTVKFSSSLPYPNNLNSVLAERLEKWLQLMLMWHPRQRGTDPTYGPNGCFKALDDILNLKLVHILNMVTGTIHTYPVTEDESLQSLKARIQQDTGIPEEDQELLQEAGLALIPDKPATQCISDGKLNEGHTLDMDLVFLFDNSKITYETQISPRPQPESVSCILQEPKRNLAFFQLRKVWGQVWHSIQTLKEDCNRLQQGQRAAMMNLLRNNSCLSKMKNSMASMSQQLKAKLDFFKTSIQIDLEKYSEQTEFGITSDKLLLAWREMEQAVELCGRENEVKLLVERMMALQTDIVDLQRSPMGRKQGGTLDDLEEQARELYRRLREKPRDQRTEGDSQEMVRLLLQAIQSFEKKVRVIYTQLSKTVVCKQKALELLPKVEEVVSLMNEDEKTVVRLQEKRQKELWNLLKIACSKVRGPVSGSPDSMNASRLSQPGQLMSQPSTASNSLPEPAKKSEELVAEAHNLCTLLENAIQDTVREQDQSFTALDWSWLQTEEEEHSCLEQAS
Endpoint: IC50

Molecular String: CN(C)Cc1ccc(-c2cc(C(N)=O)c(NC(N)=O)s2)cc1
Measurement: 13 nM
